The reported measurements were obtained from patent US20250205259A1.

Target: OXA-48 (Klebsiella pneumoniae)
Assay: Inhibitory activity on SBL, fluorescent substrate FC-5
Format: biochemical
Details: unit inferred; read-out: OXA-48, number in parentheses under the class symbol
Attribute Measured: IC50 (nM)

{"columns": ["Compound", "Attribute Measured", "Assay Result"],
 "data": [
  ["O=C(O)c1c(CNc2nncs2)ccc2c1OB(O)CC2 [Comparative example 1 compound 64, reference compound]", "IC50", 154]
]}

----------
Target: OXA-48 (Klebsiella pneumoniae, UniProt Q6XEC0)
Sequence (Q6XEC0 23-265 limits assumed): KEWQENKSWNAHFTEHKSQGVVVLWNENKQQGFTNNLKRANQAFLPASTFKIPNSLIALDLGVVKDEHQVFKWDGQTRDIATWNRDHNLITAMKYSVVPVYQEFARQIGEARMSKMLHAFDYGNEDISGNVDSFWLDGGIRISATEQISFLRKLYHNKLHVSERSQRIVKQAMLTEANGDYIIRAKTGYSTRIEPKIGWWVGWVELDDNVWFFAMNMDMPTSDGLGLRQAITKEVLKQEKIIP
Experiment: Inhibitory activity on SBL, fluorescent substrate FC-5
Format: biochemical
Conditions: comparison in words
Attribute Measured: inhibitory activity on OXA-48 compared to avibactam

{"columns": ["Compound", "Assay Result"],
 "data": [
  ["NC(=O)c1cnn(Cc2ccc3c(c2C(=O)O)OB(O)CC3)c1 [Compound 19]", "better or comparable"],
  ["NCCN1Cc2cn(Cc3ccc4c(c3C(=O)O)OB(O)CC4)nc2C1 [Compound 70]", "better or comparable"],
  ["N=C(N)NCc1ccc(-c2cn(Cc3ccc4c(c3C(=O)O)OB(O)CC4)nn2)cc1 [Compound 64]", "better or comparable"],
  ["NC(=O)N1Cc2cn(Cc3ccc4c(c3C(=O)O)OB(O)CC4)nc2C1 [Compound 73]", "better or comparable"],
  ["Nc1ccc(-c2cn(Cc3ccc4c(c3C(=O)O)OB(O)CC4)nn2)cc1 [Compound 59]", "better or comparable"],
  ["CN1Cc2cn(Cc3ccc4c(c3C(=O)O)OB(O)CC4)nc2C1 [Compound 74]", "better or comparable"],
  ["Nc1ncc(-c2cn(Cc3ccc4c(c3C(=O)O)OB(O)CC4)nn2)cn1 [Compound 61]", "better or comparable"],
  ["Nc1ccc(-c2cn(Cc3ccc4c(c3C(=O)O)OB(O)CC4)nn2)cn1 [Compound 60]", "better or comparable"],
  ["NS(=O)(=O)c1ccc(-c2cn(Cc3ccc4c(c3C(=O)O)OB(O)CC4)nn2)cc1 [Compound 62]", "better or comparable"],
  ["NCc1ccc(-c2cn(Cc3ccc4c(c3C(=O)O)OB(O)CC4)nn2)cc1 [Compound 63]", "better or comparable"],
  ["N#Cc1cnn(Cc2ccc3c(c2C(=O)O)OB(O)CC3)c1 [Compound 17]", "better or comparable"],
  ["N#Cc1ccn(Cc2ccc3c(c2C(=O)O)OB(O)CC3)n1 [Compound 18]", "better or comparable"]
]}

----------
A collection of compounds and their measured pIC50
Target: NDM-5 (Klebsiella pneumoniae, UniProt C7C422, M154L/V88L)
Sequence (C7C422 29-270 V88L/M154L): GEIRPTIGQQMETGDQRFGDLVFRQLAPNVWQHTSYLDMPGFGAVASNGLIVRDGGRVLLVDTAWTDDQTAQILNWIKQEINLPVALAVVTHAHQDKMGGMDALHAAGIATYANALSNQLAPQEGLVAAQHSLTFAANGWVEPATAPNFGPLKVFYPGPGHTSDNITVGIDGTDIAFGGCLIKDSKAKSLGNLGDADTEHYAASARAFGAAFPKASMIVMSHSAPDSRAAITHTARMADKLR
Test: Inhibitory activity on MBL, fluorescent substrate FC-5
Format: biochemical
Details: read-out: Inhibitory activity on MBL NDM-5 (IC50 class)
pIC50: −log10 of the molar value.

{"columns": ["Compound", "pIC50"],
 "data": [
  ["Nc1ccc(-c2cn(Cc3ccc4c(c3C(=O)O)OB(O)CC4)nn2)cn1", "6.00 to 8.00"],
  ["CO[C@H]1Cc2ccc(Cn3ccnn3)c(C(=O)O)c2OB1O", "6.00 to 8.00"],
  ["NC1CN(C(=O)c2cnn(Cc3ccc4c(c3C(=O)O)OB(O)CC4)c2)C1", "6.00 to 8.00"],
  ["NCCNc1cnn(Cc2ccc3c(c2C(=O)O)OB(O)CC3)c1", "6.00 to 8.00"],
  ["NC1CCC(c2cn(Cc3ccc4c(c3C(=O)O)OB(O)CC4)nn2)CC1 (stereo not shown)", "6.00 to 8.00"],
  ["NCCc1cn(Cc2ccc3c(c2C(=O)O)OB(O)CC3)nn1", "6.00 to 8.00"],
  ["N=C(N)N1Cc2cnn(Cc3ccc4c(c3C(=O)O)OB(O)CC4)c2C1", "4.00 to 6.00"],
  ["Nc1ccc(-c2cn(Cc3ccc4c(c3C(=O)O)OB(O)CC4)nn2)cc1", "6.00 to 8.00"],
  ["O=C(O)c1c(Cn2ccnn2)ccc2c1OB(O)CC2", "6.00 to 8.00"],
  ["O=C(O)c1c(Cn2cc(F)cn2)ccc2c1OB(O)CC2", "6.00 to 8.00"],
  ["NCc1ccn(Cc2ccc3c(c2C(=O)O)OB(O)CC3)n1", "6.00 to 8.00"],
  ["NC(=O)N1Cc2cn(Cc3ccc4c(c3C(=O)O)OB(O)CC4)nc2C1", "6.00 to 8.00"],
  ["O=C(O)c1c(Cn2cc(C(F)(F)F)cn2)ccc2c1OB(O)CC2", "6.00 to 8.00"],
  ["O=C(O)c1c(Cn2ccc3cncnc32)ccc2c1OB(O)CC2", "6.00 to 8.00"],
  ["O=C(O)c1c(Cn2cc(-c3ccccc3)nn2)ccc2c1OB(O)CC2", "6.00 to 8.00"],
  ["O=C(O)c1c(Cn2cc3c(n2)CNC3)ccc2c1OB(O)CC2", "6.00 to 8.00"],
  ["NCc1cnn(Cc2ccc3c(c2C(=O)O)OB(O)[C@@H](Sc2nncs2)C3)c1", "4.00 to 6.00"],
  ["O=C(O)c1c(CN2C[C@H](O)CC2=O)ccc2c1OB(O)CC2", "6.00 to 8.00"],
  ["NC1(c2cnn(Cc3ccc4c(c3C(=O)O)OB(O)CC4)c2)CC1", "6.00 to 8.00"],
  ["O=C(O)c1c(CNc2nncs2)ccc2c1OB(O)CC2 [Comparative example 1 compound 64, reference compound]", "4.00 to 6.00"],
  ["N#Cc1ccn(Cc2ccc3c(c2C(=O)O)OB(O)CC3)n1", "6.00 to 8.00"],
  ["O=C(O)c1c(Cn2cc3c(n2)CNC3)ccc2c1OB(O)C=C2", "4.00 to 6.00"],
  ["NCCN1Cc2cn(Cc3ccc4c(c3C(=O)O)OB(O)CC4)nc2C1", "6.00 to 8.00"],
  ["O=C(O)c1c(Cn2cc(CN3CCCC3)nn2)ccc2c1OB(O)CC2", "6.00 to 8.00"],
  ["NCc1ccc(-c2cn(Cc3ccc4c(c3C(=O)O)OB(O)CC4)nn2)cc1", "6.00 to 8.00"],
  ["O=C(O)c1c(Cn2cc3c(n2)CNC3)ccc2c1OB(O)[C@H]1C[C@@H]21", "6.00 to 8.00"],
  ["O=C(O)c1c(Cn2nccn2)ccc2c1OB(O)C1CC21 (stereo not shown)", "4.00 to 6.00"],
  ["CCCc1cn(Cc2ccc3c(c2C(=O)O)OB(O)CC3)nn1", "6.00 to 8.00"],
  ["CC(N)c1cnn(Cc2ccc3c(c2C(=O)O)OB(O)CC3)c1 (stereo not shown)", "4.00 to 6.00"],
  ["C[n+]1ccn(Cc2ccc3c(c2C(=O)O)OB(O)CC3)n1", "6.00 to 8.00"],
  ["N=C(N)NCc1cnn(Cc2ccc3c(c2C(=O)O)OB(O)CC3)c1", "6.00 to 8.00"],
  ["NCc1cn(Cc2ccc3c(c2C(=O)O)OB(O)CC3)nn1", "4.00 to 6.00"],
  ["O=C(O)c1c(Cn2cccn2)ccc2c1OB(O)CC2", "6.00 to 8.00"],
  ["NS(=O)(=O)c1ccc(-c2cn(Cc3ccc4c(c3C(=O)O)OB(O)CC4)nn2)cc1", "6.00 to 8.00"],
  ["O=C(O)c1c(CN2CC=CC2)ccc2c1OB(O)CC2", "4.00 to 6.00"],
  ["NC1CN(Cc2cnn(Cc3ccc4c(c3C(=O)O)OB(O)CC4)c2)C1", "< 4.00"],
  ["N[C@H]1CC(=O)N(Cc2ccc3c(c2C(=O)O)OB(O)CC3)C1", "4.00 to 6.00"]
]}

----------
Lab note: pIC50 readings collected with TEM-1 (Escherichia coli) for the following compounds.
Sequence (P62593 24-286 limits assumed): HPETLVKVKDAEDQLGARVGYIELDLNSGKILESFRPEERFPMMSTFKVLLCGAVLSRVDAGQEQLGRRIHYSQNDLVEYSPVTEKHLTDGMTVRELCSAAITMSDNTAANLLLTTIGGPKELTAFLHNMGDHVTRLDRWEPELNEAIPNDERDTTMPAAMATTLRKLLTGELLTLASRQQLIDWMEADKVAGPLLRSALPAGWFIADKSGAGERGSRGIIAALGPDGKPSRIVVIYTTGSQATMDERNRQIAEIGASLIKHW
pIC50: −log10 of the molar value.
Attribute Measured: pIC50

{"columns": ["Compound", "Assay Result"],
 "data": [
  ["NC(=O)c1ccn(Cc2ccc3c(c2C(=O)O)OB(O)CC3)n1 [Compound 20]", "> 8.00"],
  ["N[C@H]1CC(=O)N(Cc2ccc3c(c2C(=O)O)OB(O)CC3)C1 [Compound 45]", "6.00 to 8.00"],
  ["CC(C)(N)C#Cc1cnn(Cc2ccc3c(c2C(=O)O)OB(O)CC3)c1 [Compound 46]", "6.00 to 8.00"],
  ["N=C(N)NCc1cnn(Cc2ccc3c(c2C(=O)O)OB(O)CC3)c1 [Compound 37]", "> 8.00"],
  ["N#Cc1cnn(Cc2ccc3c(c2C(=O)O)OB(O)CC3)c1 [Compound 17]", "> 8.00"],
  ["O=C(O)c1c(Cn2cccn2)ccc2c1OB(O)CC2 [Compound 14]", "6.00 to 8.00"],
  ["NCCN1Cc2cn(Cc3ccc4c(c3C(=O)O)OB(O)CC4)nc2C1 [Compound 70]", "> 8.00"],
  ["O=C(O)c1c(CN2C[C@H](O)CC2=O)ccc2c1OB(O)CC2 [Compound 44]", "6.00 to 8.00"],
  ["O=C(O)c1c(Cn2cc(-c3ccccc3)nn2)ccc2c1OB(O)CC2 [Compound 12]", "6.00 to 8.00"],
  ["O=C(O)c1c(Cn2cc(CN3CCCC3)nn2)ccc2c1OB(O)CC2 [Compound 5]", "6.00 to 8.00"],
  ["CO[C@H]1Cc2ccc(Cn3cc(CN)cn3)c(C(=O)O)c2OB1O [Compound 69]", "4.00 to 6.00"],
  ["NC1(c2cn(Cc3ccc4c(c3C(=O)O)OB(O)CC4)nn2)CC1 [Compound 41]", "6.00 to 8.00"],
  ["NS(=O)(=O)N1Cc2cn(Cc3ccc4c(c3C(=O)O)OB(O)CC4)nc2C1 [Compound 57]", "> 8.00"],
  ["N=C(N)NCCc1cnn(Cc2ccc3c(c2C(=O)O)OB(O)CC3)c1 [Compound 50]", "6.00 to 8.00"],
  ["N=C(N)N1Cc2cnn(Cc3ccc4c(c3C(=O)O)OB(O)CC4)c2C1 [Compound 67]", "6.00 to 8.00"],
  ["O=C(O)c1c(Cn2ncc3ccccc32)ccc2c1OB(O)CC2 [Compound 22]", "6.00 to 8.00"],
  ["NCc1cn(Cc2ccc3c(c2C(=O)O)OB(O)CC3)nn1 [Compound 7]", "6.00 to 8.00"],
  ["C[C@H]1Cc2ccc(Cn3ccnn3)c(C(=O)O)c2OB1O [Compound 29]", "6.00 to 8.00"],
  ["CC(N)c1cnn(Cc2ccc3c(c2C(=O)O)OB(O)CC3)c1 (stereo not shown) [Compound 39]", "6.00 to 8.00"]
]}
